testedSystem: HCV NS5B (Hepatitis C virus genotype 1b (isolate Con1) (HCV))
Sequence (Q9WMX2 2420-2992): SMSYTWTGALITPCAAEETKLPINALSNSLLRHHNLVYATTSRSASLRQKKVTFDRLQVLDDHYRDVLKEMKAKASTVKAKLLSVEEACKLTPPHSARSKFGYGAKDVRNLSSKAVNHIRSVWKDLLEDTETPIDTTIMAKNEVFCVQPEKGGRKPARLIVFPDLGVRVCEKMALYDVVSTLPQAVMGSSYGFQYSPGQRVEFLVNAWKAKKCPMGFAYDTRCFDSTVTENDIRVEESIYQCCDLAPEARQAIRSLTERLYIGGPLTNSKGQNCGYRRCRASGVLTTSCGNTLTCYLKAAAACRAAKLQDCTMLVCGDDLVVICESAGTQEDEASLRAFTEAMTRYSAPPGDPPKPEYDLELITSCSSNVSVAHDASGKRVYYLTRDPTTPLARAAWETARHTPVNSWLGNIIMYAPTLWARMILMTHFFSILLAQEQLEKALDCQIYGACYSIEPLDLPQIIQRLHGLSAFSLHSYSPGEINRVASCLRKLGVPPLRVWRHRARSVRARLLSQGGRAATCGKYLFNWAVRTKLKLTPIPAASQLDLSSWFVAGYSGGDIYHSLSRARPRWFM
procedureText: HCV NS5B RdRp enzyme assay
Assay type: biochemical, HCV genotype 1b (Con1)
readoutKind: pIC50
// field semantics: pIC50 = negative decimal log of concentration (mol/L)

Query: Quickly give me recorded pIC50 for [2H]C([2H])([2H])Oc1ncc(-c2cc3c(C(=O)NC)c(-c4ccc(F)cc4)oc3nc2CCC(F)(F)F)cc1C(=O)NC(c1ncon1)(C([2H])([2H])[2H])C([2H])([2H])[2H] [Example 17]
Result: 8.62

The values you see were collected from patent US8962651B2.
